- TEST_DETAILS: stopped-flow CO2 hydration assay
- Format: biochemical, Homo sapiens
- SETTINGS: read-out: KI^* (nM) / hCA I

COMPOUND_STRING: NS(=O)(=O)c1ccc2[nH]c(C(=O)NN=Cc3c[nH]c4ccccc34)c(-c3ccccc3)c2c1
Ki: > 10000 nM

###

- STUDY_TARGET: hCA I (Homo sapiens)
- Construct: gene CA1; recombinant from E. coli; cytosolic isoform
- TEST_DETAILS: stopped-flow CO2 hydration assay
- Format: biochemical
Cut-off 9000 nM on Ki: below means true (1), at or above means false (0).

MOLECULE: NS(=O)(=O)c1ccc2[nH]c(C(=O)NN=C3CCN(Cc4ccccc4)CC3)c(-c3ccccc3)c2c1
CLASS: true (1)
--
MOLECULE: NS(=O)(=O)c1ccc2[nH]c(C(=O)NN=C3CCC(c4ccccc4)CC3)c(-c3ccccc3)c2c1 (stereo not shown)
CLASS: false (0)
--
MOLECULE: NS(=O)(=O)c1ccc2[nH]c(C(=O)NN=Cc3ccc(Br)s3)c(-c3ccccc3)c2c1
CLASS: false (0)
--
MOLECULE: CC1CCC(=NNC(=O)c2[nH]c3ccc(S(N)(=O)=O)cc3c2-c2ccccc2)CC1 (stereo not shown)
CLASS: false (0)
--
MOLECULE: CN1CCC(=NNC(=O)c2[nH]c3ccc(S(N)(=O)=O)cc3c2-c2ccccc2)CC1
CLASS: false (0)
--
MOLECULE: NS(=O)(=O)c1ccc2[nH]c(C(=O)NN=Cc3ccncc3)c(-c3ccccc3)c2c1
CLASS: true (1)
--
MOLECULE: NS(=O)(=O)c1ccc2[nH]c(C(=O)NN=Cc3cccs3)c(-c3ccccc3)c2c1
CLASS: true (1)
--
MOLECULE: CC(C)(C)C1CCC(=NNC(=O)c2[nH]c3ccc(S(N)(=O)=O)cc3c2-c2ccccc2)CC1 (stereo not shown)
CLASS: false (0)
--
MOLECULE: NS(=O)(=O)c1ccc2[nH]c(C(=O)NN=Cc3c[nH]c4ccccc34)c(-c3ccccc3)c2c1
CLASS: false (0)
--
MOLECULE: CC(CC(C)C)=NNC(=O)c1[nH]c2ccc(S(N)(=O)=O)cc2c1-c1ccccc1
CLASS: true (1)
--
MOLECULE: C=NNC(=O)c1[nH]c2ccc(S(N)(=O)=O)cc2c1-c1ccccc1
CLASS: true (1)
--
MOLECULE: NS(=O)(=O)c1ccc2[nH]c(C(=O)NN=Cc3cccnc3)c(-c3ccccc3)c2c1
CLASS: true (1)
--
MOLECULE: CCC(C)=NNC(=O)c1[nH]c2ccc(S(N)(=O)=O)cc2c1-c1ccccc1
CLASS: false (0)
--
MOLECULE: CC(C)=NNC(=O)c1[nH]c2ccc(S(N)(=O)=O)cc2c1-c1ccccc1
CLASS: false (0)
--
MOLECULE: Cn1cccc1C=NNC(=O)c1[nH]c2ccc(S(N)(=O)=O)cc2c1-c1ccccc1
CLASS: false (0)

###

- STUDY_TARGET: hCA II (Homo sapiens, UniProt P00918)
- Construct: gene CA2; recombinant from E. coli; cytosolic isoform
- TEST_DETAILS: stopped-flow CO2 hydration assay
- Type: biochemical

COMPOUND: C=NNC(=O)c1[nH]c2ccc(S(N)(=O)=O)cc2c1-c1ccccc1
MEASUREMENT_UNITS: nM
Ki: 9370
--
COMPOUND: CC(C)(C)C1CCC(=NNC(=O)c2[nH]c3ccc(S(N)(=O)=O)cc3c2-c2ccccc2)CC1 (centres unmarked)
MEASUREMENT_UNITS: nM
Ki: 3380
--
COMPOUND: CCC(CC)=NNC(=O)c1[nH]c2ccc(S(N)(=O)=O)cc2c1-c1ccccc1
MEASUREMENT_UNITS: nM
Ki: 6620
--
COMPOUND: NS(=O)(=O)c1ccc2[nH]c(C(=O)NN=Cc3cccnc3)c(-c3ccccc3)c2c1
MEASUREMENT_UNITS: nM
Ki: 8910
--
COMPOUND: CCCC1CCC(=NNC(=O)c2[nH]c3ccc(S(N)(=O)=O)cc3c2-c2ccccc2)CC1 (centres unmarked)
MEASUREMENT_UNITS: nM
Ki: 796
--
COMPOUND: NS(=O)(=O)c1ccc2[nH]c(C(=O)NN=Cc3ccncc3)c(-c3ccccc3)c2c1
MEASUREMENT_UNITS: nM
Ki: 3490
--
COMPOUND: CC(CC(C)C)=NNC(=O)c1[nH]c2ccc(S(N)(=O)=O)cc2c1-c1ccccc1
MEASUREMENT_UNITS: nM
Ki: 6560
--
COMPOUND: NS(=O)(=O)c1ccc2[nH]c(C(=O)NN=C3CCN(Cc4ccccc4)CC3)c(-c3ccccc3)c2c1
MEASUREMENT_UNITS: nM
Ki: 372

###

Below, each entry is listed with its recorded Ki.
- STUDY_TARGET: hCA I (Homo sapiens, UniProt P00915)
- Construct: gene CA1; recombinant from E. coli; cytosolic isoform
- Sequence (P00915 2-261): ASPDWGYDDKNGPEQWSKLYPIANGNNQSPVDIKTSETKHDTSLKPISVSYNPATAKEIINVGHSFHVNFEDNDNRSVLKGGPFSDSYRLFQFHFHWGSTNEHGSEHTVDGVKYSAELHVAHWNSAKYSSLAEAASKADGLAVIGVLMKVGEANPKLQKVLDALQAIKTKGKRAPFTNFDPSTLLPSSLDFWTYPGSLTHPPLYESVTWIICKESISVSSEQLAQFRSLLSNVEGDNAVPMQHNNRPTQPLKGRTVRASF
- TEST_DETAILS: stopped-flow CO2 hydration assay
- Type: biochemical
ASSAY_READOUT: Ki

COMPOUND: NS(=O)(=O)c1ccc2[nH]c(C(=O)NN=C3CCCC3)c(-c3ccccc3)c2c1
RECORDED_MEASUREMENT: > 10000 nM
--
COMPOUND: NS(=O)(=O)c1ccc2[nH]c(C(=O)NN=C3CCCCC3)c(-c3ccccc3)c2c1
RECORDED_MEASUREMENT: > 10000 nM
--
COMPOUND: CC=NNC(=O)c1[nH]c2ccc(S(N)(=O)=O)cc2c1-c1ccccc1
RECORDED_MEASUREMENT: 4060 nM
--
COMPOUND: CCC1CCC(=NNC(=O)c2[nH]c3ccc(S(N)(=O)=O)cc3c2-c2ccccc2)CC1 (centres unmarked)
RECORDED_MEASUREMENT: > 10000 nM
--
COMPOUND: CCCC1CCC(=NNC(=O)c2[nH]c3ccc(S(N)(=O)=O)cc3c2-c2ccccc2)CC1 (centres unmarked)
RECORDED_MEASUREMENT: > 10000 nM

###

- STUDY_TARGET: hCA IX (Homo sapiens)
- Construct: gene CA9; recombinant from E. coli; transmembrane isoform with extracellular catalytic domain
- TEST_DETAILS: stopped-flow CO2 hydration assay
- Type: biochemical
- SETTINGS: read-out: KI^* (nM) / hCAIX
Below is a list of entries, each paired with its recorded Ki value.

COMPOUND: CCCC1CCC(=NNC(=O)c2[nH]c3ccc(S(N)(=O)=O)cc3c2-c2ccccc2)CC1 (centres unmarked)
Ki (nM): 348

COMPOUND: NS(=O)(=O)c1ccc2[nH]c(C(=O)NN=C3CCN(Cc4ccccc4)CC3)c(-c3ccccc3)c2c1
Ki (nM): 11.7

COMPOUND: CC(C)(C)C1CCC(=NNC(=O)c2[nH]c3ccc(S(N)(=O)=O)cc3c2-c2ccccc2)CC1 (centres unmarked)
Ki (nM): 17.4

COMPOUND: CC1CCC(=NNC(=O)c2[nH]c3ccc(S(N)(=O)=O)cc3c2-c2ccccc2)CC1 (centres unmarked)
Ki (nM): 419

COMPOUND: CC=NNC(=O)c1[nH]c2ccc(S(N)(=O)=O)cc2c1-c1ccccc1
Ki (nM): 12.9

COMPOUND: CN1CCC(=NNC(=O)c2[nH]c3ccc(S(N)(=O)=O)cc3c2-c2ccccc2)CC1
Ki (nM): 9.2

COMPOUND: NS(=O)(=O)c1ccc2[nH]c(C(=O)NN=C3CCCC3)c(-c3ccccc3)c2c1
Ki (nM): 476

COMPOUND: NS(=O)(=O)c1ccc2[nH]c(C(=O)NN=Cc3cccnc3)c(-c3ccccc3)c2c1
Ki (nM): 35.8

###

Quick list: log10(Ki) per entry.
- STUDY_TARGET: hCA IX (Homo sapiens)
- Construct: gene CA9; recombinant from E. coli; transmembrane isoform with extracellular catalytic domain
- TEST_DETAILS: stopped-flow CO2 hydration assay
- Type: biochemical
- SETTINGS: read-out: KI^* (nM) / hCAIX
ASSAY_READOUT: log10(Ki) (log10 of the value in nM)

COMPOUND: CC(CC(C)C)=NNC(=O)c1[nH]c2ccc(S(N)(=O)=O)cc2c1-c1ccccc1
STUDY_TARGET: hCA IX (Homo sapiens)
log10(Ki): 2.27
//
COMPOUND: CCC(CC)=NNC(=O)c1[nH]c2ccc(S(N)(=O)=O)cc2c1-c1ccccc1
STUDY_TARGET: hCA IX (Homo sapiens)
log10(Ki): 1.64
//
COMPOUND: NS(=O)(=O)c1ccc2[nH]c(C(=O)NN=Cc3ccncc3)c(-c3ccccc3)c2c1
STUDY_TARGET: hCA IX (Homo sapiens)
log10(Ki): 1.20
//
COMPOUND: NS(=O)(=O)c1ccc2[nH]c(C(=O)NN=Cc3cccs3)c(-c3ccccc3)c2c1
STUDY_TARGET: hCA IX (Homo sapiens)
log10(Ki): 1.68
//
COMPOUND: NS(=O)(=O)c1ccc2[nH]c(C(=O)NN=Cc3ccc(Br)s3)c(-c3ccccc3)c2c1
STUDY_TARGET: hCA IX (Homo sapiens)
log10(Ki): 1.68
//
COMPOUND: Cn1cccc1C=NNC(=O)c1[nH]c2ccc(S(N)(=O)=O)cc2c1-c1ccccc1
STUDY_TARGET: hCA IX (Homo sapiens)
log10(Ki): 1.65
//
COMPOUND: NS(=O)(=O)c1ccc2[nH]c(C(=O)NN=C3CCC(c4ccccc4)CC3)c(-c3ccccc3)c2c1 (stereo not shown)
STUDY_TARGET: hCA IX (Homo sapiens)
log10(Ki): 1.51
//
COMPOUND: C=NNC(=O)c1[nH]c2ccc(S(N)(=O)=O)cc2c1-c1ccccc1
STUDY_TARGET: hCA IX (Homo sapiens)
log10(Ki): 1.52
//
COMPOUND: CCC1CCC(=NNC(=O)c2[nH]c3ccc(S(N)(=O)=O)cc3c2-c2ccccc2)CC1 (stereo not shown)
STUDY_TARGET: hCA IX (Homo sapiens)
log10(Ki): 2.68
//
COMPOUND: NS(=O)(=O)c1ccc2[nH]c(C(=O)NN=Cc3c[nH]c4ccccc34)c(-c3ccccc3)c2c1
STUDY_TARGET: hCA IX (Homo sapiens)
log10(Ki): 2.32
//
COMPOUND: CC(C)=NNC(=O)c1[nH]c2ccc(S(N)(=O)=O)cc2c1-c1ccccc1
STUDY_TARGET: hCA IX (Homo sapiens)
log10(Ki): 1.68
//
COMPOUND: NS(=O)(=O)c1ccc2[nH]c(C(=O)NN=C3CCCCC3)c(-c3ccccc3)c2c1
STUDY_TARGET: hCA IX (Homo sapiens)
log10(Ki): 2.28
//
COMPOUND: CCC(C)=NNC(=O)c1[nH]c2ccc(S(N)(=O)=O)cc2c1-c1ccccc1
STUDY_TARGET: hCA IX (Homo sapiens)
log10(Ki): 1.62
